Measured remaining activity at 1 µM values are reported for all entries that follow.
target: human σ2 receptor (TMEM97) (Homo sapiens, UniProt Q5BJF2); assay: biochemical; assay type: Expi293 membranes; conditions: read-out: % of control remaining
Sequence (Q5BJF2 whole entry): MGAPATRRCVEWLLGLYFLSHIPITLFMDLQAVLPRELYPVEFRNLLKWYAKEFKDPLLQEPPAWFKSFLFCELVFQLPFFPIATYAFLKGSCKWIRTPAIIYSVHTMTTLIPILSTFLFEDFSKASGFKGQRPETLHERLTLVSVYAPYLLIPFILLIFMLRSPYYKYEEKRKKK
Return type: number; implicit unit %.

Here is how some compounds turned out for remaining activity at 1 µM.
* Cc1cc(C)c2cc(CN3CCC[C@H](N4CCCC4)CC3)[nH]c2c1 | 11.7
* O=C(Cn1cc([N+](=O)[O-])ccc1=O)N1CC[C@H](N2CC[C@@H](O)C2)C1 | 134
* Cc1ccnc(CN[C@@H](C)CCNC(=O)c2ccn(C(C)C)c2C)n1 | 71.1

Now let's try a different one.
Summary for this compound, O[C@@H](CN1CC[C@@H](CSc2ccccc2)C1)c1c(F)cccc1F : remaining activity at 1 µM is 23.7
